tested on: U2OS; test: Incucyte cell viability with U2OS; assay type: toxicity, cell-based; details: human, 12 h, 10 µM, compound concentration 10 uM, replicate number 1, timepoint 12 hours; note: unitless GR value; below 1 slowed growth and below 0 cell loss
Response field label: string, one of met (Growth Rate strictly below 0.6) or not met.

| smiles.data | discrete.label |
| --- | --- |
| Cc1cc(O)c(-c2ccc([C@@H](C)CN(C)C)cc2)c2c1[nH]c(=O)c1sccc12 | not met |
| CC1=C(C)C(=O)C(C(C)(C)CC(=O)N(CCCCSC[C@H]2O[C@@H](n3cnc4c(N)ncnc43)[C@H](O)[C@@H]2O)Cc2cccc(-c3ccc(Cl)cc3)c2)=C(C)C1=O | met |
| CC(C)c1cc(-c2ccc(F)c3ccccc23)nc(N)n1 | not met |
| CCCCCCCCCCCCC/C=C/[C@@H](O)[C@@H](N)COP(=O)(O)O | not met |
| O=C(O)CCC/C=C\C[C@H]1C(=O)C[C@@H](O)[C@@H]1/C=C/[C@@H](O)CCc1ccccc1 | met |
| CCC(=O)NC[C@@H]1C[C@H]1c1cccc2c1CCO2 | not met |
| NC(=O)c1cc2c(-c3ccc(C(=O)NCc4ccnc(Cl)c4)s3)cccc2s1 | met |
| CCCN(CCc1cccs1)[C@H]1CCc2c(O)cccc2C1 | not met |
| CCCCC/C=C\C/C=C\C/C=C\C/C=C\CCCC(=O)NCC(=O)O | not met |
| CCCCCCCCCCCCCCC[C@@H](O)[C@@H](N)COP(=O)(O)O | not met |
| OCCN1CCN(CCCN2c3ccccc3Sc3ccc(Cl)cc32)CC1 | not met |
| Cc1noc(C)c1-c1cnc2c(-c3ccc(C(=O)O)cc3)cn([C@@H](C)c3ccccn3)c2c1 | met |
| C=CCNc1ncnc2ccc(Br)cc12 | not met |
| O=C(c1cc(C2CC2)on1)N(C1CCCCC1)C1CCCCC1 | not met |
| CCCCCCCCc1ccc(CCC(N)(CO)CO)cc1 | met |
| CCN1C(=CC(C)=O)Sc2ccc(OC)cc21 | not met |
| CN(C)C(=O)Cn1cc(-c2ccc(-c3cncc4ccccc34)cc2)cn1 | met |

###

system: HEK-293T; test: Incucyte cell viability with HEK293T; assay type: toxicity, cell-based; details: human, 12 h, 10 µM, compound concentration 10 uM, replicate number 2, timepoint 12 hours; note: unitless GR value; below 1 slowed growth and below 0 cell loss
Where a SMILES comes first, the peptide text is derived from it. Bridges are numbered along the chain shown (N, C = ends). [ ]: non-standard residue; d: D form. Orn = NCCC[C@H](N)C(=O)O; Mpa = O=C(O)CCS
Decide by Growth Rate: equal to or exceeding 0.5 means yes (1), less means no (0).

| compound | discrete.label |
| --- | --- |
| CNc1nc(NCc2ncccn2)c2c(-c3ccc4ncccc4c3)c[nH]c2n1 | no (0) |
| CC(C)[C@H](C(=O)Nc1ccc(C(=O)NO)cc1)c1ccccc1 | no (0) |
| COc1ccc(CN(CCN(C)C)c2ccccn2)cc1 | yes (1) |
| C[C@H](CCC(=O)O)[C@H]1CC[C@H]2[C@@H]3CC[C@@H]4C[C@H](O)CC[C@]4(C)[C@H]3CC[C@]12C | yes (1) |
| CNC(=O)c1nn(C)c2c1C(C)(C)Cc1cnc(Nc3ccc(N4CCN(C)CC4)cc3)nc1-2 | no (0) |
| CC(C)C[C@H](CO)Nc1nc(S[C@@H](C)c2ccccc2)nc2nc(N)sc12 | yes (1) |
| OCCCNc1cc(-c2ccnc(Nc3cccc(Cl)c3)n2)ccn1 | no (0) |
| O=C(O)c1nc2ccccc2c2[nH]c3c(I)cccc3c12 | yes (1) |
| C[C@H](NC(=O)CNC(=O)c1cccc(Cl)c1)c1ccccc1 | yes (1) |
| CC1(COc2ccc3c(c2)ncn3-c2ccc3cccc(N4CCC(N)CC4)c3n2)COC1 | no (0) |
| CN1CCN(c2ccc(Nc3c4ccccc4nc4ccccc34)cc2)CC1.Cl.Cl.O | no (0) |
| CNCCN1CCC(c2cc(CN(C)C(=O)c3cccc(Oc4ccccc4)c3)ccn2)CC1 | yes (1) |
| C[C@H]1CN(C[C@H](Cc2ccccc2)C(=O)NCC(=O)O)CC[C@@]1(C)c1cccc(O)c1 | yes (1) |
| O=C1NC(=Nc2c(Cl)cccc2Cl)S/C1=C\c1ccc2nccnc2c1 | no (0) |
| CC1=C(C)C(=O)C(C(C)(C)CC(=O)N(CCCCSC[C@H]2O[C@@H](n3cnc4c(N)ncnc43)[C@@H]3OC(C)(C)O[C@@H]32)Cc2cccc(-c3ccc(Cl)cc3)c2)=C(C)C1=O | yes (1) |
| Cc1ccc(Cn2nc(C(=O)N[C@@H]3C(C)(C)[C@@H]4CC[C@@]3(C)C4)cc2-c2ccc(Cl)c(C)c2)cc1 | yes (1) |
| CCOc1ccc(C[C@H]2NC(=O)CCSSC[C@@H](C(=O)N3CCC[C@H]3C(=O)N[C@@H](CCCN)C(=O)NCC(N)=O)NC(=O)[C@H](CC(N)=O)NC(=O)[C@H]([C@@H](C)O)NC(=O)[C@H]([C@@H](C)CC)NC2=O)cc1 [ATOSIBAN] ([Mpa][dY](Et)ITNCP[Orn]G-NH2; disulfide 1-6) | yes (1) |
| O=C(O)CCn1c2c(c3ccccc31)C[C@H](NS(=O)(=O)c1ccc(F)cc1)CC2 | yes (1) |
| CN(C)C/C=C/C(=O)Nc1ccc(C(=O)N2CCCC(Nc3ncc(Cl)c(-c4c[nH]c5ccccc45)n3)C2)cc1 (stereo unspecified) | no (0) |
| Cl.Clc1cccc(Cl)c1NC1=NCCN1 [CLONIDINE HYDROCHLORIDE] | yes (1) |
| CC(=O)NCC(=O)N1[C@@H]2CC[C@H]1c1ccc(Nc3ncc(C(F)(F)F)c(NC4CCC4)n3)cc12 | no (0) |

###

A collection of compounds and their measured Growth Rate
system: Fibroblast; test: Incucyte cell viability with human fibroblast; type: toxicity, cell-based; conditions: 24 h, 10 µM, compound concentration 10 uM, replicate number 2, timepoint 24 hours; note: unitless GR value; below 1 slowed growth and below 0 cell loss

| compound | Growth Rate |
| --- | --- |
| CSc1ccccc1N1CCN(CCCCCC(=O)NC2CCCc3ccccc32)CC1.Cl (configuration not stated) | 0.23 |
| C[C@H](N)Cn1ccc2cc(F)c(Cl)cc21.O=C(O)/C=C/C(=O)O | 0.79 |
| COC(=O)[C@H](CCCNC(=N)N)NC(=O)CCCc1c(-c2ccccc2)[nH]c2c(F)cc(F)cc12.O=C(O)C(F)(F)F | 0.46 |
| C[C@H]1[C@H](OC(=O)CCC(=O)O)O[C@@H]2O[C@@]3(C)CC[C@H]4[C@H](C)CC[C@@H]1[C@@]24OO3 [ARTESUNATE] | -0.06 |
| CN[C@@H](C)C(=O)N[C@H]1CCCC[C@H]2CC[C@@H](C(=O)N[C@@H](c3ccccc3)c3cn(CCCCc4ccc(CCCCn5cc([C@@H](NC(=O)[C@@H]6CC[C@@H]7CCCC[C@H](NC(=O)[C@H](C)NC)C(=O)N76)c6ccccc6)nn5)cc4)nn3)N2C1=O | 0.81 |
| N[C@](CC1c2ccccc2Oc2ccccc21)(C(=O)O)[C@H]1C[C@@H]1C(=O)O | 0.88 |
| CCOc1c2c(c(OCC)c3ncccc13)CN(c1ccc(CS(=O)(=O)NC(=O)Cc3ccccc3OC)cc1C)C2=O | -0.4 |

###

system: U2OS; assay: Incucyte cell viability with U2OS; format: toxicity, cell-based; conditions: human, 12 h, 10 µM, compound concentration 10 uM, replicate number 1, timepoint 12 hours; note: unitless GR value; below 1 slowed growth and below 0 cell loss
// reported Growth Rate per item

| compound | Growth Rate |
| --- | --- |
| CCn1c(-c2nc3cc(C(=O)N4CCCC(N)C4)ccc3n2C)cc2ccccc21.Cl (stereo not given) | 0.95 |
| CC[C@H](Nc1ncnc2[nH]cnc12)c1nc2cccc(F)c2c(=O)n1-c1ccccc1 [IDELALISIB] | 0.4 |
| COc1cc2nc(N3CCN(C(=O)C4CCCO4)CC3)nc(N)c2cc1OC.Cl.O.O (stereo not given) [TERAZOSIN HYDROCHLORIDE] | 0.73 |
| OCCCNc1cc(-c2ccnc(Nc3cccc(Cl)c3)n2)ccn1 | 0.44 |
| Cl.Cl.NCCc1c[nH]cn1 [HISTAMINE DIHYDROCHLORIDE] | 0.76 |

###

system: HEK-293T; assay: Incucyte cell viability with HEK293T; assay type: toxicity, cell-based; settings: human, 18 h, 10 µM, compound concentration 10 uM, replicate number 1, timepoint 18 hours; note: unitless GR value; below 1 slowed growth and below 0 cell loss
Label rule, in plain words: Growth Rate of 0.8 and up is 1, under 0.8 is -1.

| smiles.data | discrete.label |
| --- | --- |
| O=C1NC(Nc2ccccc2)=N/C1=C\c1ccc2c(c1)OCO2 | -1 |
| CC(=O)c1cc(-c2ccccc2OCC2CC2)c2ncccn12 | 1 |
| CCCCC/C=C\C/C=C\C/C=C\C/C=C\CCCC(=O)NCC(=O)O | -1 |
| CNCCN1CCC(c2cc(CN(C)C(=O)c3cccc(Oc4ccccc4)c3)ccn2)CC1 | 1 |
| Cc1cc(-c2ccc3c(c2)CC[C@H]3N2CC3(CCN(C(=O)Cc4cn5cc(C)sc5n4)CC3)C2)ncn1 | 1 |
| CC(C)c1c(NC(=O)Nc2ccc(Cl)cc2)c(=O)n(-c2ccccc2)n1C | -1 |
| O=C1Nc2ccc(I)cc2/C1=C/c1cc(Br)c(O)c(Br)c1 | 1 |
| CC1(COc2ccc3c(c2)ncn3-c2ccc3cccc(N4CCC(N)CC4)c3n2)COC1 | -1 |

Measured values drawn from ChEMBL document CHEMBL5058564 for this set.
